Target: Cytochrome P450 2D6 (Homo sapiens)
Assay: Cytochrome P450 Family 2 Subfamily D Member 6 (CYP2D6) small molecule antagonists: luciferase reporter qHTS assay (AID 1671196); note: nearly all actives have a fitted effect of over 50% in size
Conditions: P450-Glo CYP2D6 enzyme assay, luciferin luminescence, 1 h; series mostly up to 115 µM
Source text: U.S. Tox21 Program National Center for Advancing Translational Sciences [NCATS] U.S. Environmental Protection Agency [EPA] National Institutes of Environmental Health Sciences [NIEHS] National Toxicology Program [NTP] U.S. Food and Drug Administration [FDA] […] The luciferin products formed are detected with a luciferin detection reagent, and the amount of light produced is proportional to CYP activity. […]
Results filed as inconclusive are left out. Active and inactive are the calls of the source. Calls come from the whole dose curve; as a rule, active = well fitted inhibition curve with a large enough effect in the repeat runs; inconclusive = weak or mixed curves; inactive = no such curve, though single readings can be large or run the other way.
Pick one: true = active, false = inactive

C[C@@H]1CCN(C(=O)[C@H](CCCN=C(N)N)NS(=O)(=O)c2cccc3c2NC[C@H](C)C3)[C@@H](C(=O)O)C1: false
NC(=O)c1ccc([N+](=O)[O-])cc1: false
CCCCCOC(=O)CCCCC: false
NC(=O)COCCN1CCN(C(c2ccccc2)c2ccc(Cl)cc2)CC1 (stereo not drawn): false
CCO[Si](CCC1CCC2OC2C1)(OCC)OCC (stereo not drawn): false

Exercise: Lab log entry: CCN(CC)CCNC(=O)c1cc(S(C)(=O)=O)ccc1OC — outcome as called in the assay?
Key: true

Exercise: Note, next up: O=C1CC2CC1C1CCCC21 (stereo not drawn)
Key: false

Exercise: Note, next up: CC(=O)OCC(=O)[C@@]1(O)CC[C@H]2[C@@H]3CCC4=CC(=O)CC[C@]4(C)[C@H]3C(=O)C[C@@]21C
Key: true

Exercise: Note, next up: O=[N+]([O-])c1ccc(F)cc1F
Key: false

Exercise: Note, next up: CC1=CC(C)C(C=O)CC1 (stereo not drawn)
Key: false

Exercise: Note, next up: C1CN(CCOCCN2CCOCC2)CCO1
Key: false

Exercise: Note, next up: O=C(O)CCCl
Key: false

Exercise: Note, next up: Cc1c(O)cccc1O
Key: false

====

target: Cytochrome P450 2D6 (Homo sapiens) (UniProt P10635); assay: Cytochrome P450 Family 2 Subfamily D Member 6 (CYP2D6) small molecule antagonists: luciferase reporter qHTS assay (AID 1671196); details: P450-Glo CYP2D6 enzyme assay, luciferin luminescence, 1 h; series mostly up to 115 µM; note: nearly all actives have a fitted effect of over 50% in size; note: potency is the fitted concentration of half-maximal effect
Sequence (P10635 whole entry, looked up): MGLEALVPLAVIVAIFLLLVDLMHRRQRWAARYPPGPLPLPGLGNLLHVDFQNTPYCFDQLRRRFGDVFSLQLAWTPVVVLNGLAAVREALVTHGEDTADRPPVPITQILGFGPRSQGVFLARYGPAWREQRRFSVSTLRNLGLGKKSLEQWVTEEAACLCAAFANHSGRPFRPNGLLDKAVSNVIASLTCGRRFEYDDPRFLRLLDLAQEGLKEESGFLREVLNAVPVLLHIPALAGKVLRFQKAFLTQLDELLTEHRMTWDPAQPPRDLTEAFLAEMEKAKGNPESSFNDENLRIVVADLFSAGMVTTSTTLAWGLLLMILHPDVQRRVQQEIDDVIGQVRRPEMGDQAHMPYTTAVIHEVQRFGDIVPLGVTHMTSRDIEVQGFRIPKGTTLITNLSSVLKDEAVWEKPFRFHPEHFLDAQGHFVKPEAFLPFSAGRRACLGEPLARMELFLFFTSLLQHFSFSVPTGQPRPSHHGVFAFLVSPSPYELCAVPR
Records with an inconclusive call do not appear. Active and inactive are the calls of the source. The call rests on the fitted dose curve; in most records, active means well fitted inhibition curve with a large enough effect in the repeat runs; inconclusive means weak or mixed curves; inactive means no such curve, though single readings can be large or run the other way.
reported-metric: Potency

Consider the worked cases shown below.
COC(=O)c1cc(C(=O)OC)cc(S(=O)(=O)O)c1: inactive
C=CCOCC(CC)(CO)COCC=C: inactive
CC(=O)CC(C)(C)C1CCCCC1: inactive
C=C[Si](OC(=C)C)(OC(=C)C)OC(=C)C: inactive
N=C(N)c1ccc2cc(OC(=O)c3ccc(N=C(N)N)cc3)ccc2c1: inactive

Exercise: For CCCCCCCCCCCCN(CCCCCCCCCCCC)CCCCCCCCCCCC , what is its reported Potency?
Key: inactive

Exercise: Note, next up: O=C(O)COc1nn(Cc2ccccc2)c2ccccc12
Key: inactive

====

target: Cytochrome P450 1A2 (Homo sapiens); test: Cytochrome P450 Family 1 Subfamily A Member 2 (CYP1A2) small molecule antagonists: luciferase reporter qHTS assay (AID 1671199); details: P450-Glo CYP1A2 enzyme, luciferin luminescence, 1 h; series mostly up to 53 µM; note: nearly all actives have a fitted effect of over 50% in size
Results filed as inconclusive are left out. Activity calls are given as the source filed them. Calls follow the shape of the dose curve; as a rule, active = well fitted inhibition curve with a large enough effect in the repeat runs; inconclusive = weak or mixed curves; inactive = no such curve, though single readings can be large or run the other way.
Pick one: active, inactive

CC(C)OC(=O)c1ccccc1: inactive
CN1CCCC1: inactive
NC(=O)c1cn(Cc2c(F)cccc2F)nn1: inactive
CC(=O)OCC(=O)[C@@]1(O)CC[C@H]2[C@@H]3CCC4=CC(=O)CC[C@]4(C)[C@H]3C(=O)C[C@@]21C: inactive
C=CCS(=O)(=O)O: inactive
CCCCCCCCCCCCCCCCC: active
OC(CCN1CCCCC1)(c1ccccc1)C1CC2C=CC1C2 (stereo unspecified): inactive
CCOC(=O)c1cccc(N)c1: active

Exercise: Lab log entry: O=S(O)CO — outcome as called in the assay?
Key: inactive

Exercise: Note, next up: N=C(N)c1ccccc1
Key: inactive

Exercise: Note, next up: CC(C)(CC(=O)O)C(=O)O
Key: active
